# System: HEK-293T
# experimentNotes: Multiplex assay against HEK293T
# Assay type: toxicity, cell-based
# experimentalContext: human, 12 h, 1 µM, compound concentration 1 uM, replicate 2
recordedEndpoint: Population Pyknosed Nuclei (%)
Note: unit % is implicit; provide only the numeric part.

compound	unitsSymbol	Population Pyknosed Nuclei (%)
COc1ncc(-c2ccc3nccc(-c4ccnnc4)c3c2)cc1NS(=O)(=O)c1ccc(F)cc1F	%	77
C=CC(=O)Nc1ccc2ncnc(Nc3ccc(OCc4cccc(F)c4)c(Cl)c3)c2c1.Cc1ccc(S(=O)(=O)O)cc1	%	47
CCN(CC)CCCCNc1ncc2cc(-c3cc(OC)cc(OC)c3)c(NC(=O)NC(C)(C)C)nc2n1	%	17
CC(C)NCC(O)COc1ccc(CCOCC2CC2)cc1.Cl (stereo unspecified) [BETAXOLOL HYDROCHLORIDE]	%	50
CN1CCCC(n2nc(Cc3ccc(Cl)cc3)c3ccccc3c2=O)CC1.Cl (stereo unspecified) [AZELASTINE HYDROCHLORIDE]	%	69

Provide Population Pyknosed Nuclei (%) value for the following compound: Cc1[nH]c(/C=C2\C(=O)Nc3ccc(S(=O)(=O)N(C)c4cccc(Cl)c4)cc32)c(C)c1C(=O)N1CCN(C)CC1
47

Given the compound Cl.N#Cc1ccc2[nH]cc(CCCCN3CCN(c4ccc5oc(C(N)=O)cc5c4)CC3)c2c1 [VILAZODONE HYDROCHLORIDE] , write its reported Population Pyknosed Nuclei (%).
61

Identify Population Pyknosed Nuclei (%) associated with the compound Cc1nc(Nc2n[nH]c3c2CN(C(=O)N[C@H](CN(C)C)c2ccccc2)C3(C)C)c2sccc2n1
6

Report measured Population Pyknosed Nuclei (%); entry is Cc1csc2c(N[C@@H](C)CN3CCN(S(=O)(=O)c4ccc(Cl)c(Cl)c4)CC3)ncnc12
64

These measurements were taken from ChEMBL document CHEMBL4689842.
